study target: Alpha-2C adrenergic receptor (Homo sapiens) (UniProt P18825)
Sequence (P18825 whole entry, looked up): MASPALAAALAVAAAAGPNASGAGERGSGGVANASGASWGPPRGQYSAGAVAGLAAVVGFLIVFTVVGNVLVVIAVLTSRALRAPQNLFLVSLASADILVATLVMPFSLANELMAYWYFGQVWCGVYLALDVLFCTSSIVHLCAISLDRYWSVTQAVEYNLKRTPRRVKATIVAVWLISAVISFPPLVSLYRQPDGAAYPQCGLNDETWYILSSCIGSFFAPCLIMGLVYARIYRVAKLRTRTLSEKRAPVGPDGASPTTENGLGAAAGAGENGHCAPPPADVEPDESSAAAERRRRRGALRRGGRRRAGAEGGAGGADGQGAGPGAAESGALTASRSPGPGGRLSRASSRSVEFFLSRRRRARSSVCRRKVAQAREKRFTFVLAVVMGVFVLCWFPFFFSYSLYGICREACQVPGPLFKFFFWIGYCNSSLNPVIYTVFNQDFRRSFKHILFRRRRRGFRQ
assay procedure: compounds altering alpha2C-coupled GIRK flux – cell-based, HEK293 alpha2C/GIRK1/2, thallium flux, primary screen (AID 624);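 further: slope of fluorescence ratio to pre-addition baseline per second over 15 to 24 s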
conditions used: thallium flux BTC fluorescence, at 10 µM, actives lie on both sides
slope vs 0.006: at or above is true (1), below is false (0).

Input line: hey, is slope for this one >= 0.006? `O=C(CCCCn1c(=O)c2ccccc2n(Cc2ccc(Cl)cc2)c1=O)NCc1ccco1`
Output line: true (1)

====

slope by entry:
study target: Alpha-2C adrenergic receptor (Homo sapiens) (UniProt P18825)
assay procedure: compounds altering alpha2C-coupled GIRK flux – cell-based, HEK293 alpha2C/GIRK1/2, thallium flux, primary screen (AID 624);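 further: slope of fluorescence ratio to pre-addition baseline per second over 15 to 24 s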
conditions used: thallium flux BTC fluorescence, at 10 µM, actives lie on both sides
Hey, just send me the number, nothing else.

Example compounds with recorded slope:
{"columns": ["compound", "study target", "slope"],
 "data": [
  ["CCOC(=O)Cc1nnc2c(Nc3ccccc3F)nc3nonc3n12", "Alpha-2C adrenergic receptor (Homo sapiens) (UniProt P18825)", 0.00616],
  ["CCOCCCNC(=O)Cn1ncc2c(=O)oc3ccccc3c21", "Alpha-2C adrenergic receptor (Homo sapiens) (UniProt P18825)", 0.00598],
  ["COC(=O)c1ccccc1NC(=O)c1ccc(COc2ccccc2)o1", "Alpha-2C adrenergic receptor (Homo sapiens) (UniProt P18825)", 0.00572]
]}

Input line: GET /values?readout=slope&item= `Cc1cc(C)nc(N2CCC(C(=O)NC3CCCCCC3)CC2)n1`
Output line: 0.00535

Input line: Record request: slope value, item `Cn1cnc(S(=O)(=O)Nc2ccc(C(F)(F)F)cc2)c1`
Output line: 0.00601
